Measured MRGPRX4 activation, Average, listed per entry for reference.
Biological target: MRGPRX4 (Homo sapiens, UniProt Q96LA9)
Sequence (Q96LA9 whole entry): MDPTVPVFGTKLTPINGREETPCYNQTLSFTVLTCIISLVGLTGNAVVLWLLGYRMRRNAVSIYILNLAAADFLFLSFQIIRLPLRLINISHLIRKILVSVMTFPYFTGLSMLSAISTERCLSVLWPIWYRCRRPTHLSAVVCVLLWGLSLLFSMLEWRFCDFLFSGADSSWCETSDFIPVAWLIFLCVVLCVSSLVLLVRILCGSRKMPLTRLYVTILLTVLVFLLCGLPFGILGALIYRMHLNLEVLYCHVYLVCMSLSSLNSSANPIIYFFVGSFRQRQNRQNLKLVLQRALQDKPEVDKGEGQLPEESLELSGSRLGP
Assay: MRGPRX4 activation, Fluo-8 Ca2+ FLIPR assay in HEK293T cells stably expressing MRGPRX4
Assay type: cell-based
Details: E3-9, Conc. (Log[M]) −4.0
The answer should be a number; do not append a unit.

Completed entries (count: 3):
CC[C@H]1[C@@H](O)[C@H]2[C@@H]3CC[C@](C)([C@H](C)CCNC(=O)NS(=O)(=O)C[C@]45CCC(CC4=O)C5(C)C)[C@H]3CC[C@@H]2[C@@]2(C)CC[C@H](F)C[C@@H]12 ... 0.014
CC[C@H]1[C@@H](O)[C@@H]2[C@H](CC[C@]3(C)[C@@H]([C@H](C)CCNC(=O)NS(=O)(=O)c4ccc5c(c4)CCC(C)(C)O5)CC[C@@H]23)[C@@]2(C)CCCC[C@@H]12 ... 0.014
CC[C@H]1[C@@H](O)[C@@H]2[C@H](CC[C@]3(C)[C@@H]([C@H](C)CCNC(=O)C(=O)NS(=O)(=O)c4cc(F)ccc4F)CC[C@@H]23)[C@@]2(C)CCCC[C@@H]12 ... 0.030

Now look at this entry.
Would you mind telling me what MRGPRX4 activation, Average value was observed for CCOC(=O)C(=O)NCC[C@@H](C)[C@H]1CC[C@H]2[C@@H]3[C@H](O)[C@H](CC)[C@@H]4CCCC[C@]4(C)[C@H]3CC[C@]12C ? 0.030
